Every entry's value here was drawn from patent US6716833B2.

- experimental.system: MMP-1 (Homo sapiens, UniProt P03956)
- Sequence (P03956 100-469): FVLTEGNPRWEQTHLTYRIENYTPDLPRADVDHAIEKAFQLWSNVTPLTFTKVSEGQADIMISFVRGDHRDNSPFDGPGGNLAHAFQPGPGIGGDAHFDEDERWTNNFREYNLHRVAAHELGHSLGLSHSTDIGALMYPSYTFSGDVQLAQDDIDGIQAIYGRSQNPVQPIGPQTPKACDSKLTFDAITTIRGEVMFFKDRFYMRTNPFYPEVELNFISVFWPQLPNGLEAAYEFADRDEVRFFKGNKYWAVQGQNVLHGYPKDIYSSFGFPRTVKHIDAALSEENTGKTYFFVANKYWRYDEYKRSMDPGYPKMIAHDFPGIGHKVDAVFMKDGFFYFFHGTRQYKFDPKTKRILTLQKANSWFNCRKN
- experimental.protocol: MMP-1 inhibition (thiopeptide or fluorescent peptide substrate)
- Format: biochemical
- condition.notes: Table 10; read-out: MMP-1 IC50
Exercise: state measured IC50 for each of the compounds provided.
Numbers only, in nM.

Some compounds with known IC50 results, for comparison:
{"compound": "C#CC#CCOc1ccc(S(=O)(=O)N2CCSC(C)(C)[C@@H]2C(=O)NO)cc1", "experimental.system": "MMP-1 (Homo sapiens, UniProt P03956)", "IC50 / nM": 5.7}
{"compound": "CC(=O)OCC#CCOc1ccc(S(=O)(=O)N2CCSC(C)(C)[C@@H]2C(=O)NO)cc1", "experimental.system": "MMP-1 (Homo sapiens, UniProt P03956)", "IC50 / nM": 103}
{"compound": "CC(C)(C)OC(=O)NCCCC#CCOc1ccc(S(=O)(=O)N2CCSC(C)(C)[C@@H]2C(=O)NO)cc1", "experimental.system": "MMP-1 (Homo sapiens, UniProt P03956)", "IC50 / nM": 42}

We next turn to a different compound, shown below.
Returns the measured IC50 for the input compound. Input: CC1(C)SCCN(S(=O)(=O)c2ccc(OCC#CCN)cc2)C1C(=O)NO (stereo not shown)
97

###

- experimental.system: MMP-9 (Homo sapiens, UniProt P14780)
- Sequence (P14780 94-707): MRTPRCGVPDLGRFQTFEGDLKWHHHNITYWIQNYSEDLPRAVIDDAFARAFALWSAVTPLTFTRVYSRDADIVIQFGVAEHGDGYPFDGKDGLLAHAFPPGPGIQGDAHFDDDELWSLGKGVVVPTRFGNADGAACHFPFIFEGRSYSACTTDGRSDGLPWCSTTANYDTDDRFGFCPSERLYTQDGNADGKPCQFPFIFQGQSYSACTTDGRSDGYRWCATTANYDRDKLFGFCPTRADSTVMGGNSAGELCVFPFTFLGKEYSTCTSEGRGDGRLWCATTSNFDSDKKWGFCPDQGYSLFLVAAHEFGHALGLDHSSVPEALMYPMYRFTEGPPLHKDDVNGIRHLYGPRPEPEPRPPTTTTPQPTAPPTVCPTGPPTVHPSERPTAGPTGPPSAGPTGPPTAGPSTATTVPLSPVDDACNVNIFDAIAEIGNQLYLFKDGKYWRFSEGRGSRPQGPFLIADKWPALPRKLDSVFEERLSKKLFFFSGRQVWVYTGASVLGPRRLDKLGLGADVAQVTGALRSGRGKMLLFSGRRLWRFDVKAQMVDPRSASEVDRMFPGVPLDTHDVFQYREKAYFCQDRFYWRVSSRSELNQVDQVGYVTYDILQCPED
- experimental.protocol: MMP-9 inhibition (thiopeptide or fluorescent peptide substrate)
- Assay type: biochemical
- condition.notes: read-out: MMP-9 IC50
Counter-ions that a name gives are not always drawn.
Criterion: IC50 strictly less than 0.2 µM. Met: fulfilled. Not met: not fulfilled.

{"molecule": "CC#CCOc1ccc(S(=O)(=O)N2CCN(C(=O)N3CCCC3)CC2C(=O)NO)cc1 (centres unmarked)", "group": "not fulfilled"}
{"molecule": "CC#CCOc1ccc(S(=O)(=O)N2CCN(C(=O)c3cccs3)CC2C(=O)NO)cc1 (centres unmarked)", "group": "not fulfilled"}
{"molecule": "CC#CCOc1ccc(S(=O)(=O)N(C)C(C(=O)NO)C(C)(C)SCc2ccccc2)cc1 (centres unmarked)", "group": "fulfilled"}
{"molecule": "CC#CCOc1ccc(S(=O)(=O)N(C)C2(C(=O)NO)CCCCC2)cc1", "group": "not fulfilled"}
{"molecule": "CC#CCOc1ccc(S(=O)(=O)N(Cc2cccnc2)C2(C(=O)NO)CCCCC2)cc1", "group": "fulfilled"}
{"molecule": "CC#CCOc1ccc(S(=O)(=O)N2CCN(C)CC2C(=O)NO)cc1 (centres unmarked) [Example 56, Hydrochloride]", "group": "not fulfilled"}

Please indicate whether the reported IC50 of CC#CCOc1ccc(S(=O)(=O)NC(C)C(=O)NO)cc1 (centres unmarked) is strictly below 0.2 µM.
not fulfilled

Entry CC#CCOc1ccc(S(=O)(=O)N(C)C(C(=O)NO)C(C)(C)SCCN(CC)CC)cc1 (centres unmarked) please
fulfilled

Let us now turn to `CC#CCOc1ccc(S(=O)(=O)N[C@@H](C(=O)NO)[C@@H](C)CC)cc1`
not fulfilled

Please do the same for CC#CCOc1ccc(S(=O)(=O)NC(C(=O)NO)C(C)(C)SCC(=O)OC(C)(C)C)cc1 (centres unmarked) as well.
not fulfilled

Record: CC#CCOc1ccc(S(=O)(=O)N2CCN(Cc3ccc(Br)cc3)CC2C(=O)NO)cc1 (centres unmarked)
fulfilled

Then CC#CCOc1ccc(S(=O)(=O)N(Cc2cccnc2)C(CSCc2ccccc2)C(=O)NO)cc1 (centres unmarked) ?
fulfilled

Another molecule to check: CC#CCOc1ccc(S(=O)(=O)NC(C(=O)NO)C(C)(C)SCc2cccnc2)cc1 (centres unmarked)
fulfilled

###

- experimental.system: MMP-9 (Homo sapiens)
- experimental.protocol: MMP-9 inhibition (thiopeptide or fluorescent peptide substrate)
- Assay type: biochemical
- condition.notes: Table 9; read-out: MMP-9 IC50
pIC50: −log10 of the molar value.
# label = Condition met if pIC50 >= 7 else Condition not met

Example entries begin here.
{"compound": "CCCCC#CCOc1ccc(S(=O)(=O)N2CCSC(C)(C)C2C(=O)NO)cc1 (stereo not drawn)", "group": "Condition met"}
{"compound": "CC#CCOc1ccc(S(=O)(=O)N2CC[S+]([O-])C(C)(C)C2C(=O)NO)cc1 (single isomer, unassigned) [Example 255]", "group": "Condition met"}
{"compound": "CC#CCOc1ccc(S(=O)(=O)N2CCSCC2C(=O)NO)cc1 (stereo not drawn)", "group": "Condition met"}

# next compound below
Quick check, pIC50 >= 7? CC#CCOc1ccc(S(=O)(=O)N2CCOCC2C(=O)NO)cc1 (stereo not drawn)
Condition not met

###

- experimental.system: MMP-9 (Homo sapiens)
- experimental.protocol: MMP-9 inhibition (thiopeptide or fluorescent peptide substrate)
- Assay type: biochemical
- condition.notes: read-out: MMP-9 IC50
recorded.endpoint: IC50 (nM)
One number for each entry, in nM.

{"compound": "CC#CCOc1ccc(S(=O)(=O)N(C)C(C(=O)NO)c2ccc(OCCN)cc2)cc1 (centres unmarked)", "result.units": "nM", "quantitative.readout": 26}
{"compound": "CC#CCOc1ccc(S(=O)(=O)N(C)C(C(=O)NO)C(C)(C)SCc2cccnc2)cc1 (centres unmarked)", "result.units": "nM", "quantitative.readout": 3.7}
{"compound": "CC#CCOc1ccc(S(=O)(=O)NC(C)(C)C(=O)NO)cc1", "result.units": "nM", "quantitative.readout": 1380}
{"compound": "CC#CCOc1ccc(S(=O)(=O)N(C)[C@@H](C(=O)NO)c2ccc(O[C@H]3CCNC3)cc2)cc1", "result.units": "nM", "quantitative.readout": 37}
{"compound": "CC#CCOc1ccc(S(=O)(=O)N2CCN(C(=O)Nc3ccc(OC)cc3)CC2C(=O)NO)cc1 (centres unmarked)", "result.units": "nM", "quantitative.readout": 576}
{"compound": "CC#CCOc1ccc(S(=O)(=O)N2CCN(C(=O)N(C)c3ccccc3)CC2C(=O)NO)cc1 (centres unmarked)", "result.units": "nM", "quantitative.readout": 561}
{"compound": "CC#CCOc1ccc(S(=O)(=O)N(CCCCN(CC)CC)C(C(=O)NO)C(C)C)cc1 (centres unmarked)", "result.units": "nM", "quantitative.readout": 256}

// lookup IC50 for CC#CCOc1ccc(S(=O)(=O)NC(CSCc2ccccc2)C(=O)NO)cc1 (centres unmarked)
141

###

- experimental.system: TNF-α converting enzyme (TACE) (Homo sapiens, UniProt P78536)
- Sequence (P78536 215-824, species assumed): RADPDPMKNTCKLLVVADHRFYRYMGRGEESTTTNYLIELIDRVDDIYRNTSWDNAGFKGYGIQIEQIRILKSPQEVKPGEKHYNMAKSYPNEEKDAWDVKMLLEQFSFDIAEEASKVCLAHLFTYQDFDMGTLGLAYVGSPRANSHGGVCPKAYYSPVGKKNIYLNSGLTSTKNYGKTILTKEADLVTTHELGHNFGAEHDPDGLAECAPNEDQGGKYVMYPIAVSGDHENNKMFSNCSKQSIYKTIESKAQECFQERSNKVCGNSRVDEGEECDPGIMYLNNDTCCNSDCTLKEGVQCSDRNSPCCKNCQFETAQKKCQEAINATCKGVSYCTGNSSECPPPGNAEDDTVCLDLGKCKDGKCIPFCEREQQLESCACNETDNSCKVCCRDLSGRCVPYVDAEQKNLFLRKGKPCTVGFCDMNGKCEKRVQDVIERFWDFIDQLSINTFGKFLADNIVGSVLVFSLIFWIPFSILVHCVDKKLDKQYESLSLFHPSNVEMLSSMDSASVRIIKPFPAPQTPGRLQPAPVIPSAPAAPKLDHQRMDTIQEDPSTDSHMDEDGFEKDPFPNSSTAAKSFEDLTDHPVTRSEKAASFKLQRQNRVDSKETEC
- experimental.protocol: TACE inhibition (fluorescent peptidyl substrate)
- Assay type: biochemical
- condition.notes: Table 11; read-out: TACE IC50
Structures can show the parent of a compound that is named as a salt.
Kindly supply the reported pIC50 values for the records listed here.
Give bare numbers, as −log10 of the molar value.

Some solved entries appear below for comparison.
{"compound": "CC#CCOc1ccc(S(=O)(=O)N2C[C@@H](CNC(=O)OC(C)(C)C)SC(C)(C)[C@@H]2C(=O)NO)cc1", "pIC50": 7.06}
{"compound": "CC#CCOc1ccc(S(=O)(=O)N2C[C@H](CC(=O)O)SC(C)(C)[C@@H]2C(=O)NO)cc1", "pIC50": 7.70}
{"compound": "CC#CCOc1ccc(S(=O)(=O)N2C[C@H](CC(=O)N3CCN(C)CC3)SC(C)(C)[C@@H]2C(=O)NO)cc1 [Example 283, hydrochloride]", "pIC50": 6.84}

The record that follows has no pIC50 shown yet.
Recorded pIC50 for `CC#CCOc1ccc(S(=O)(=O)N2C[C@H](CNC(=O)OC(C)(C)C)SC(C)(C)[C@@H]2C(=O)NO)cc1` with TNF-α converting enzyme (TACE) (Homo sapiens, UniProt P78536), please?
7.23

###

Provide the reported IC50 of each item.
- experimental.system: MMP-1 (Homo sapiens)
- experimental.protocol: MMP-1 inhibition (thiopeptide or fluorescent peptide substrate)
- Type: biochemical
- condition.notes: Table 10; read-out: MMP-1 IC50
Answer with the value and then the unit.

{"compound": "CC1(C)SCCN(S(=O)(=O)c2ccc(OCC#Cc3ccccc3)cc2)[C@H]1C(=O)NO", "result": "13 nM"}
{"compound": "CC1(C)SCCN(S(=O)(=O)c2ccc(OCC#CCO)cc2)[C@H]1C(=O)NO", "result": "33 nM"}
{"compound": "CC1(C)SCCN(S(=O)(=O)c2ccc(OCC#CC#CCO)cc2)[C@H]1C(=O)NO", "result": "9.9 nM"}

Okay, next one:
Value lookup for IC50; key = CC1(C)SCCN(S(=O)(=O)c2ccc(OCC#CCO)cc2)C1C(=O)NO (stereo not shown)
24 nM

###

recorded.endpoint: melting point

{"molecule": "CC#CCOc1ccc(S(=O)(=O)NC2(C(=O)NO)CCCCC2)cc1", "melting point": "82 to 84 °C"}
{"molecule": "CC#CCOc1ccc(S(=O)(=O)N2CCSC3(CCCC3)C2C(=O)NO)cc1 (stereo not drawn)", "melting point": "206 to 208 °C"}
{"molecule": "CC#CCOc1ccc(S(=O)(=O)N(C)[C@@H](C(=O)NO)[C@H]2CC[C@H](O)CC2)cc1", "melting point": "195 to 197 °C"}

Hi there! I need melting point for each item below, if you can.
1. CC#CCOc1ccc(S(=O)(=O)N(C)C(C(=O)NO)C(C)(C)SCc2ccccc2)cc1 (stereo not drawn)
2. CC#CCOc1ccc(S(=O)(=O)N2CCSCC2C(=O)NO)cc1 (stereo not drawn)
3. CC#CCOc1ccc(S(=O)(=O)N(Cc2cccnc2)C(CSCc2ccccc2)C(=O)NO)cc1 (stereo not drawn)

1. 156 to 158 °C
2. 150 to 154 °C
3. 74 to 78 °C
